endpoint_name: melting point

# compound, endpoint_name, recorded_result
data = [
    ("Nc1nc(-c2ccc(Cl)cc2F)nc(C(=O)O)c1Cl [Compound 11]", "melting point", "194 to 196 °C"),
    ("CCOC(=O)c1nc(-c2ccc(Cl)cc2F)nc(N)c1Cl [Compound 19]", "melting point", "131 to 132 °C"),
]

// recorded melting point for COC(=O)c1nc(-c2ccc(Cl)cc2F)nc(N)c1Cl [Compound 1] : 194 to 196 °C

// recorded melting point for COC(=O)c1nc(-c2ccc(Cl)c(F)c2F)nc(N)c1Cl [Compound 2] : 187 to 189 °C

// recorded melting point for Nc1nc(-c2ccc(Cl)c(F)c2F)nc(C(=O)O)c1Cl [Compound 12] : 209 to 211 °C
